# test_protocol: yeast display, Sf9 membrane polyspecificity reagent, FACS + sequencing; frameworks hold sequencing errors
property: polyreactivity (PSR sort gate)

Previously resolved entries follow.
{"sequence_text": "QVQLVESGGGLVQAGGSLRLSCAASGSTFAFNAMGWYRQAPGKEREFVARITWSDGSTYYADSVKGRFTISRDNAKNSVYLQMNSLKPEDTAVYYCARDPTEQAIARWTYDYWGQGTQVTVSS", "polyreactivity (PSR sort gate)": "low polyreactivity"}
{"sequence_text": "QVQLVESGGGLVQAGGSLRLSCAASGRIFRVYTMGWYRQAPGKERQLVATISYRGGSTYYADSVKGRFTISRDNAKNTVFLQMNSLTPDDNAVYNCAARLPADPGKTPGTLRTLDYWGQGTQVTVSS", "polyreactivity (PSR sort gate)": "high polyreactivity"}
{"sequence_text": "QVQLVESGGGLVQAGGSLRLSCAASGYIFGHYTMGWYRPAPGKEGELVAGITRGTRTYYADSVKGRFTISRDNAKNTVYLQMNSLKPEDTAVYYCAKRGPVRTQYTYYYWGQGTQVTVSS", "polyreactivity (PSR sort gate)": "high polyreactivity"}
{"sequence_text": "QFQLVESGGGLVQAGGSLRLSCESSGFTFYKYAIGSYRKAPGKERELVAAISRRGTSTYYADSVKGRFTISRDNAKNTVYLQMNSLNPEDTAVYYCNRDVSLSAFDYWGQGTQVTVSS", "polyreactivity (PSR sort gate)": "high polyreactivity"}
{"sequence_text": "QVQLVESGGGLVQAGGSLRLSCAASGITFYYYTMGGYRQAPGKERELVAGITRGGRTYYADSVKGRFTISRDNAKNTVYLQMNSLKPEDTAVYYCNADPWWRFDYWGQGTQVTVSS", "polyreactivity (PSR sort gate)": "low polyreactivity"}

[ask] Note polyreactivity (PSR sort gate) for the sequence shown: `QVQLVESGGGLFQAGVSLRLSCAASGSTIGVNAMGWSRKAPGKERELVAAISRGGGRTYYADSVKWRFTISRDIAKKTVYLQMICLKPEDTAVYYCNTDFGARMGYWGQGTEVTVSS`
[reply] high polyreactivity

[ask] Note polyreactivity (PSR sort gate) for the sequence shown: `QVQIVESGGGLVQAGGSLRLSCAASGFILNYYGMGWYRQAPGKERELVATISRGASTNYADSVKGRFTISRDNAKNTVYLQMISLKPEETEVYSCAKDYGDWGQGTQVTVSS`
[reply] low polyreactivity

[ask] Note polyreactivity (PSR sort gate) for the sequence shown: `QVQLVESGGGLVQAGGSLRLSCAASGRNFVAYTMGWSRQAPGKERELVAAIRIIGGSTYYADSVKGRFTISRDNAKNTVYLQMNSLKPVDTAVYFCDTPYAYPGTVQYAGYNYWGQGTQVTVSS`
[reply] high polyreactivity

###

# test_protocol: yeast display, Sf9 membrane polyspecificity reagent, FACS + sequencing; frameworks hold sequencing errors
property: polyreactivity (PSR sort gate)

Previously resolved entries follow.
{"sequence_text": "QVQLVESGGGLVQAGGSLRLSCAASGINFPGYAMGWYRQAPGKERELVAVIRKSGTSTYYADSVKGRFTISRDNAKNTVYLQMNSLKPEDTAVYYCAAGGPSTLDDYWGQGTQVTVSS", "property": "polyreactivity (PSR sort gate)", "result": "low polyreactivity"}
{"sequence_text": "QVQLVESGGGLVQAGGSLRLSCAASGRIIGKYDMGWYRQAPGTERELVAAIRYNGGRTYYADSVKGRFTISRDNAKNTVYLQMNRLKPEDNAVYYCATRTYRVDPEFGYWGQGTEVTVSS", "property": "polyreactivity (PSR sort gate)", "result": "high polyreactivity"}
{"sequence_text": "QVQLVESGGGLVQAGGSLRLSCAASGNTFYRYAMGWNRQAPGKERELVAAISNGGSTNYADSVKGRFTISRDNAKNTVYLQMNSLKPEDSAVYYWAAANTRRYTHGFWGHGTQVTVSS", "property": "polyreactivity (PSR sort gate)", "result": "high polyreactivity"}
{"sequence_text": "QVQLVESGGGLVQAGGSLRLTCAASGNIFRAYAMGWYRQAPGKERELVAAISWNAGTTYYADSVKGRFTISRDHAKNTVYLQMHSLKPEDTAVYYCAASKLLRRGLCKYYKATYSYDYWGQGTQVTVSS", "property": "polyreactivity (PSR sort gate)", "result": "high polyreactivity"}
{"sequence_text": "QVQLVESGGGLDQAGGSLRLSCAASGLIFYTYAMGWYRQAPGKERELVADINRSDGSTYYADSVKGRFTISRDNAKNTVYLQMNSLKPEDTAVYYCAVVGTYYSRFGGRYYYWGQGTQVTVSS", "property": "polyreactivity (PSR sort gate)", "result": "low polyreactivity"}

[ask] Note polyreactivity (PSR sort gate) for the sequence shown: `QVQLVESGGGLVQAGGSLRLSCAASGSTFLYYAMGWYRQAPGKERELVAVISWSGVSTYYADSVKGRFTISRDNAKNTVYLQMNSLKPEVTAVYYCNTGNHYIRTYGYWGQGTQVTVSS`
[reply] low polyreactivity

[ask] Note polyreactivity (PSR sort gate) for the sequence shown: `QVQLVESGGGLVQAGGSLRLSCAASGFTFRFYAMGWYRQAPGKERELVATISSRGGRTYYADSVKGRFTISRDNAKNTVYLQMNSLKPEDTAVYYCAADQKSQYQGNYWGQGTQVTVSS`
[reply] high polyreactivity

// data source = the nanobody polyreactivity screen of Harvey et al. (2022)
